system-under-test: human GPR40 (Homo sapiens, UniProt O14842)
Sequence (O14842 whole entry): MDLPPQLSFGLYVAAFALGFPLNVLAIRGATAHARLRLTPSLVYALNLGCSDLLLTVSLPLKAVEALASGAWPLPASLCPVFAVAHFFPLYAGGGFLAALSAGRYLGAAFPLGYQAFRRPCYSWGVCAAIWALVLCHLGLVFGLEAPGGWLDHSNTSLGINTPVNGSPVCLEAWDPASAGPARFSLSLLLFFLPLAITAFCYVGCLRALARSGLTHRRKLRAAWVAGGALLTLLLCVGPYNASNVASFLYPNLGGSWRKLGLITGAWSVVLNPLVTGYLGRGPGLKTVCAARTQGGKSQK
assay-remarks: GPR40 calcium flux assay, human GPR40
conditions: HEK293 cells stably expressing GPR40; table does not say human or rat
metric-name: EC50 (nM)

(I) Cc1cc(OCC2=C(Cc3ccc(Cl)cc3)CCC2)c(F)cc1CCC(=O)O [Compound 360]
(II) Cc1ccc(C2=C(COc3c(F)cc(CCC(=O)O)cc3F)CC(F)(F)CC2)cc1F [Compound 525]
(III) O=C(O)CCc1ccc(OCC2=C(C3CCC3)CCCC2)cc1C(F)(F)F [Compound 599]
(IV) O=C(O)CCc1ccc(OCC2=C(C3CCCC3)CCC2)cc1Cl [Compound 428]
Ascending by EC50, please. Answer format: list of labels, ordered as asked.
IV, III, I, II

(A) Cc1ccc(C2=C(COc3cc(C)c(CCC(=O)O)cc3F)CCC2)c(C)c1 [Compound 244]
(B) CC(C)c1cc(OCC2=C(C3CCCC3)CCC2)ccc1CCC(=O)O [Compound 410]
Hi, I'm comparing A with B and wondering which one has the bigger number for EC50. Any idea? # reply format: chosen label
A
(A: 799 nM, B: 128 nM)

----------
system-under-test: human GPR40 (Homo sapiens, UniProt O14842)
assay-remarks: GPR40 calcium flux assay, human GPR40
conditions: HEK293 cells stably expressing GPR40; table does not say human or rat
pEC50: −log10 of the molar value.
metric-name: pEC50

Example entries and their recorded answers appear below.
compound: Cc1cc(CC(C)C(=O)O)ccc1OCC1=C(c2ccc(F)cc2)CCC1 (centres unmarked)
pEC50: < 5.30
--
compound: Cc1c(CCC(=O)O)ccc(OCC2=C(c3ccc([S+](C)[O-])cc3)CCCC2)c1C (centres unmarked)
pEC50: < 5.00
--
compound: Cc1cc(OCC2=C(c3ccc(Cl)cc3)CC(F)(F)C2)c(F)cc1CCC(=O)O
pEC50: 6.02
--
compound: Cc1cc(CCC(=O)O)ccc1OCC1=C(c2ccc(F)cc2)CCC(F)(F)C1
pEC50: < 5.30
--
compound: Cc1ccc(C2=C(COc3ccc(CCC(=O)O)c(C(F)(F)F)c3)CCC2)c(C(C)C)c1
pEC50: 5.48

Give the measured pEC50 of `Cc1ccc(C2=C(COc3ccc(CCC(=O)O)c(C)c3C)CCC2)cc1[N+](=O)[O-]` .
< 5.30

Give the measured pEC50 of `O=C(O)CCc1ccc(OCC2=C(c3cc(Cl)ccc3F)CCC2)cc1Cl` .
6.49

Give the measured pEC50 of `COc1ccc(C2=C(COc3c(F)cc(CCC(=O)O)cc3F)CCC2)cn1` .
< 5.30

----------
system-under-test: short form of the GPR120 receptor (Homo sapiens, UniProt Q5NUL3)
Sequence (Q5NUL3 whole entry): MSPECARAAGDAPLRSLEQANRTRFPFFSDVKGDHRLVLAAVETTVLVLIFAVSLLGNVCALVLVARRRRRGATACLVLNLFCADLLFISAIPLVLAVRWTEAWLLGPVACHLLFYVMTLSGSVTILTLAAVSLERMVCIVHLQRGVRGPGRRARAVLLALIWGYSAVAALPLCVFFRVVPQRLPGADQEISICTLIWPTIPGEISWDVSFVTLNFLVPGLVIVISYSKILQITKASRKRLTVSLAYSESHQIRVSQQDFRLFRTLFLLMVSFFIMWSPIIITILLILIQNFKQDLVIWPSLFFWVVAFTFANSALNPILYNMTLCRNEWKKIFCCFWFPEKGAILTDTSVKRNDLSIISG
Sequence (P32121 whole entry partner): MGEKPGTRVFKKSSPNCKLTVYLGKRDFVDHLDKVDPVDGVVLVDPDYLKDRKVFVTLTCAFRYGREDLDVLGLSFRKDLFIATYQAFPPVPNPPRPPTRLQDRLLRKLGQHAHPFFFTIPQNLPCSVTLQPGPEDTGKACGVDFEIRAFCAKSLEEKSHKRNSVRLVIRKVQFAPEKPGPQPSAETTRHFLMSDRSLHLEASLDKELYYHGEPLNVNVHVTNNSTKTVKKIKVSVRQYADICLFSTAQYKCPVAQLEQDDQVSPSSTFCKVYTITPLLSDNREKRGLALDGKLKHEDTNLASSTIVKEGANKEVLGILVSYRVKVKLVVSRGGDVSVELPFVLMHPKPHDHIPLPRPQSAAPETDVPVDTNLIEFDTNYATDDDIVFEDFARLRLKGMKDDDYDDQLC
assay-remarks: Human GPR120 DiscoveRx PathHunter Beta-Arrestin assay, Procedure β-arrestin B
metric-name: EC50 (nM)

structure-as-smiles: Cc1c(CCC(=O)O)ccc(OCC2=C(c3ccc(Cl)cc3Cl)CCC2)c1C
system-under-test: short form of the GPR120 receptor (Homo sapiens, UniProt Q5NUL3)
quantity-unit: nM
EC50: 1130

(A) Cc1c(CCC(=O)O)ccc(OCC2=C(c3cccc(Cl)c3)CCCC2)c1C
(B) Cc1ccc(C2=C(COc3ccc(CCC(=O)O)c(C)c3C)CCC2)c(C)c1
(C) O=C(O)CCc1ccc(OCC2=C(c3ccc(Cl)cc3)CCC2)c(F)c1F
(D) Cc1c(CCC(=O)O)ccc(OCC2=C(c3ccc(Cl)c(Cl)c3)CCC2)c1C
List from greatest to least EC50. Answer format: list of labels, ordered as asked.
A, B, D, C
